Consider the following molecules; for each one, report its pIC50.
Keep in mind that pIC50 stands for -log10 of concentration in molar terms.

Challenge: Query the reported pIC50 for BmMetRS (Brucella melitensis methionyl-tRNA-synthetase) (Brucella abortus); item: COc1cc(Cl)cc(CNCCCNC(=O)Nc2ccccc2)c1 [compound 1415, 1415]
Response given: 5.78

Challenge: Query the reported pIC50 for BmMetRS (Brucella melitensis methionyl-tRNA-synthetase) (Brucella abortus); item: O=c1cc(NCCCNCc2cc(Cl)cc(Cl)c2)[nH]c2ccccc12 [compound 1312, 1312]
Response given: 8.22

Challenge: Query the reported pIC50 for BmMetRS (Brucella melitensis methionyl-tRNA-synthetase) (Brucella abortus); item: O=C(NCCCNCc1cc(Cl)cc(Cl)c1)Nc1ccsc1 [compound 1433, 1433]
Response given: 6.57
